- SYSTEM_UNDER_TEST: Cdk6/CyclinD3 (Homo sapiens (Human))
- Sequence (Q00534 whole entry): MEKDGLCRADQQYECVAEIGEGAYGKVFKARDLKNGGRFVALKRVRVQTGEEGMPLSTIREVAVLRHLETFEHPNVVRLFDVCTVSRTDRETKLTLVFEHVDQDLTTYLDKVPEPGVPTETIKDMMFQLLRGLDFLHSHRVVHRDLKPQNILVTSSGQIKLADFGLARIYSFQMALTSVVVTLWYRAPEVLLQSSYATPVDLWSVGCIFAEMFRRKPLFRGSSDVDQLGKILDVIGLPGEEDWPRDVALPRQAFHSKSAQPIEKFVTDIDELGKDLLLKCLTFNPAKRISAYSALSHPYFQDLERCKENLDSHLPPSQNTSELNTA
- Sequence (P30281 whole entry partner): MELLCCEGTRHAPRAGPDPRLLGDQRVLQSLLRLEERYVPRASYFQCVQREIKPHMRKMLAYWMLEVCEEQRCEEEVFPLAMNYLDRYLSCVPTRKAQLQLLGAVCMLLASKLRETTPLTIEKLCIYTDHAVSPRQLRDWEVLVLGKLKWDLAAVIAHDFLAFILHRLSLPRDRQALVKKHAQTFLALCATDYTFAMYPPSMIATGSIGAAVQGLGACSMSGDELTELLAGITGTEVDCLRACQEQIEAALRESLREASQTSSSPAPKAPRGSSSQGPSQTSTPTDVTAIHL
- ASSAY_PROTOCOL: Cdk6 kinase inhibition assay with recombinant Cdk6/CyclinD3, Rb substrate, [33P]-ATP filter plate
- EXPERIMENTAL_SETUP: 25 μM ATP, read-out: Cdk 6 IC50
VALUE_TYPE: pIC50
As a rule, pIC50 stands for the negative log10 of the concentration, concentration in M.

STRUCTURE_AS_SMILES | EXPERIMENTAL_VALUE
CC1(C)CN(c2ccc(Nc3ncc4c5ccncc5n(C5CCC5)c4n3)nc2)CCN1 | 7.55
FC(F)(F)CNC1CCN(c2ccc(Nc3ncc4c5ccncc5n(C5CCCC5)c4n3)nc2)CC1 | 7.42
c1cc2c3cnc(Nc4ccc(N5CCNCC5)cn4)nc3n(C34CC5CC(CC(C5)C3)C4)c2cn1 | 8.46

For the next question, use this compound.
Inquiry: Notebook: pull reported pIC50 for Cdk6/CyclinD3 (Homo sapiens (Human)), entry CN(CC(=O)O)C1CCN(c2ccc(Nc3ncc4c5ccncc5n(C5CCCC5)c4n3)nc2)CC1
Reply text: 7.74

* * *

- SYSTEM_UNDER_TEST: Cdk4/CyclinD1 (Homo sapiens (Human))
- ASSAY_PROTOCOL: Cdk4 kinase inhibition assay with recombinant Cdk4/CyclinD1, Rb substrate, [33P]-ATP filter plate
- EXPERIMENTAL_SETUP: 25 μM ATP, read-out: Cdk 4 IC50
VALUE_TYPE: pIC50
Just the number, please; pIC50 means minus log10 of the concentration in mol/L.

MOLECULE | VALUE_TYPE | EXPERIMENTAL_VALUE
C[C@H]1CN(c2ccc(Nc3ncc4c5ccncc5n([C@H]5CCC[C@@H]5O)c4n3)nc2)CCN1 [Example 401] | pIC50 | 6.77
CNC1CCN(c2ccc(Nc3ncc4c5ccncc5n(C5CCC5)c4n3)nc2)CC1 [Example 345] | pIC50 | 7.68

Inquiry: I'd like to know its pIC50. The molecule in question is c1cc2c3cnc(Nc4ccc(N5CCNCC5)cn4)nc3n(C3CC4CCC3C4)c2cn1 (stereo not shown) [Example 24]
Reply text: 9.03

Inquiry: Also check OCCCn1c2cnccc2c2cnc(Nc3ccc(N4CC[C@@H](O)C4)nn3)nc21 [Example 353]
Reply text: 7.05

* * *

- SYSTEM_UNDER_TEST: Cdk4/CyclinD1 (Homo sapiens (Human), UniProt P11802)
- Sequence (P11802 whole entry): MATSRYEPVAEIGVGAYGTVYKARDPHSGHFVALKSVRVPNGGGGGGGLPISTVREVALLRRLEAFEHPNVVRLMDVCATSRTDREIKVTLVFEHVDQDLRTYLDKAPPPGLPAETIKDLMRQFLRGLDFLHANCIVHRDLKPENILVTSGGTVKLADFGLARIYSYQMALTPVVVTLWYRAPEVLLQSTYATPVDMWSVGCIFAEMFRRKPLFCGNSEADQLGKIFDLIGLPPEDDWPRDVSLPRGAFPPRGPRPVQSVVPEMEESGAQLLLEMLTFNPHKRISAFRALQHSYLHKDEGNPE
- Sequence (P24385 whole entry partner): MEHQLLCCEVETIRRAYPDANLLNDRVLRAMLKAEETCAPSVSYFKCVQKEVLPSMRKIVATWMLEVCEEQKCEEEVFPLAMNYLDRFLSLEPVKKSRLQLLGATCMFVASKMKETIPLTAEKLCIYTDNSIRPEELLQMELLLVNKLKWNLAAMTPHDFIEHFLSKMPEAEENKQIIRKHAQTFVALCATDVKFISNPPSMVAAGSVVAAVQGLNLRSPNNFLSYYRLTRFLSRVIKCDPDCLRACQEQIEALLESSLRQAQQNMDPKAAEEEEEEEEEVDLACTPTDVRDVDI
- ASSAY_PROTOCOL: Cdk4 kinase inhibition assay with recombinant Cdk4/CyclinD1, Rb substrate, [33P]-ATP filter plate
- EXPERIMENTAL_SETUP: 25 μM ATP, read-out: Cdk 4 IC50
- Procedure: The Cdk4 and Cdk6 inhibitory activity of the compounds is measured with a kinase inhibition assay using recombinant Cdk4/CyclinD1 or Cdk6/CyclinD3 protein complexes. The protein substrate used in the assay is the retinoblastoma protein (Rb). […] The amount of the phosphorylated Rb is determined with a TopCount (PerkinElmer). The IC50 of a compound is determined by nonlinear regression curve fitting using software program Prism 5 (GraphPad Software).
VALUE_TYPE: log10 of IC50 (log10 of the value in nM)
Give log10 of IC50, with IC50 taken in nM.

In the examples that follow, each entry is paired with its recorded log10 of IC50.
COMPOUND | EXPERIMENTAL_VALUE
c1cc2c3cnc(Nc4ccc(N5CCNC6(CCCC6)C5)nn4)nc3n(C3CCCC3)c2cn1 | 0.53
c1cc2c3cnc(Nc4ccc(NC5CCNCC5)cn4)nc3n(C3CCCC3)c2cn1 | 1.23
C[C@@H](CO)n1c2cnccc2c2cnc(Nc3ccc(N4CC[C@@H](O)C4)cn3)nc21 | 2.45
O=C(O)CN1CCN(c2ccc(Nc3ncc4c5ccncc5n(C5CCCC5)c4n3)nn2)CC1 | 0.14
C[C@H](CO)n1c2cnccc2c2cnc(Nc3ccc(N4CCC(N(C)C)CC4)nn3)nc21 | 2.33
CC1CN(c2ccc(Nc3ncc4c5ccnc(F)c5n(C5CCCC5)c4n3)nc2)CC(C)N1 (centres unmarked) | 1.30
CC1CCN(c2ccc(Nc3ncc4c5ccncc5n(C5CCCC5)c4n3)nn2)C1 (centres unmarked) | 1.28

Could you now consider this next compound?
Inquiry: Reported log10 of IC50, compound c1ccc(-n2c3cnccc3c3cnc(Nc4ccc(N5CCNCC5)cc4)nc32)cc1 : ____
Reply text: -0.49
